// provenance: ChEMBL document CHEMBL3352186

Provide the reported inhibition at 10 µM of each item.
- System: MDA-MB-231
- assay overview: Antiinvasive activity in human MDA-MB-231 cells at 10 uM after 24 hrs by matrigel assay
- Type: functional
- test context: MDA-MB-231, 24 h

Recorded results for 4 compounds are shown here.
CCn1c(-c2ccc(C)cc2C)cs/c1=N\C(=O)c1ccccc1    > 50%
CCCN(C(=O)c1ccccc1)c1nc(-c2ccccc2)cs1    > 50%
Cc1ccc(-c2cs/c(=N\C(=O)c3ccccc3)n2C)c(C)c1    > 50%
CCCCCCCCCCCCn1c(-c2ccc(C)cc2C)cs/c1=N\C(=O)c1ccccc1    > 50%

Next compound, inhibition at 10 µM to be filled in.
Recorded inhibition at 10 µM for "CCCCCCn1c(-c2ccc(C)cc2C)cs/c1=N\C(=O)c1ccccc1" , please?
> 50%
